biological target: KRAS G12V (Homo sapiens (Human), UniProt P01116+P62937, G12V); assay: Ras-Raf (BRAF RBD) disruption / FRET / MOA assay, KRAS G12V; format: biochemical; details: read-out: IC50* KRAS G12V FRET data
Sequence (P01116-2 other isoform, or with tags, fused parts or gaps G12V): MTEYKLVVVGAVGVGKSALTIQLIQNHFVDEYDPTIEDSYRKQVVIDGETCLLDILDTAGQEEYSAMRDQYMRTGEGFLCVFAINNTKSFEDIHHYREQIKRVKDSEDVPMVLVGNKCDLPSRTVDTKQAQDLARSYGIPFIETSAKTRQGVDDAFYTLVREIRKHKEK
Sequence (P62937 whole entry): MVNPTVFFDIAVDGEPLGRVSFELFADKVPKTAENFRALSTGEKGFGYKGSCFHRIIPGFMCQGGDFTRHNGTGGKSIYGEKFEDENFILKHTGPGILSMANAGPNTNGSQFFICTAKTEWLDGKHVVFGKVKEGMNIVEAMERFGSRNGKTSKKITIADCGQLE
Provide the recorded IC50 for the entries that follow.

Sure, the documented IC50 for CCn1c(-c2cccnc2[C@H](C)OC)c2c3cc(ccc31)-c1nc(co1)C[C@H](NC(=O)[C@@H](COC1CN(C(=O)C#CC(C)(C)N(C)C)C1)C(C)C)C(=O)N1CCC[C@H](N1)C(=O)OCC(C)(C)C2 (atropisomer, axis not shown) is > 10000 nM

Lab note: measured IC50 of C=CC(=O)N1CC2(C1)CN(C(=O)N(C)[C@H](C(=O)N[C@H]1Cc3nc(cs3)-c3ccc4c(c3)c(c(-c3cccnc3[C@H](C)OC)n4CC)CC(C)(C)COC(=O)[C@@H]3CCCN(N3)C1=O)C(C)C)C2 (atropisomer, axis not shown) was 100 to 1000 nM

Entry C=CC(=O)N(C)CCN1CCN(C(=O)N(C)[C@H](C(=O)N[C@H]2Cc3cccc(c3)-c3ccc4c(c3)c(c(-c3cccnc3[C@H](C)OC)n4CC)CC(C)(C)COC(=O)[C@@H]3CCCN(N3)C2=O)C(C)C)CC1 (atropisomer, axis not shown) ; IC50 = 100 to 1000 nM

Value of IC50 reported for the molecule C=CC(=O)NC[C@@H]1CCN1C(=O)N(C)[C@H](C(=O)N[C@H]1Cc2nc(cs2)-c2ccc3c(c2)c(c(-c2cccnc2[C@H](C)OC)n3CC)CC(C)(C)COC(=O)[C@@H]2CCCN(N2)C1=O)C(C)C (atropisomer, axis not shown) is 1000 to 10000 nM
